Values from paper PMC5540273

%Inh values, listed per item
- Test system: YSK1;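 further: KINOMEscan kinase panel screen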
- Construct: gene STK25
- conditions used: concentration: 1 μM, replicates: in singlicate; n = 1

compound	target under test	%Inh
Cl.NC(=O)c1cccc(Nc2nccc(Nc3ccc(Oc4c(Cl)cccc4Cl)c(Cl)c3)n2)c1	YSK1	0%
COc1cccc(NC(=O)NC2CCN(c3ccnc(Nc4cc(OC)c(OC)c(OC)c4)n3)C2)c1 (centres unmarked)	YSK1	6%
Nc1n[nH]c2cnc(-c3ccccc3)cc12	YSK1	1%
CC(C)(C)c1ccc2nccc(Nc3cccc(O)c3)c2c1	YSK1	0%
Cc1cccc(Nc2nc(N[C@H]3CCNC3)ncc2C(N)=O)c1.Cl	YSK1	52%
